# Test system: NCI-H226
# ASSAY_COMMENT: Cell growth inhibition test (CellTiter-Glo Luminescent Cell Viability), NCI-H226
# Type: cell-based
# COND: Homo sapiens; NCI-H226 cells, CellTiter-Glo; read-out: growth IC50 H226
pIC50: −log10 of the molar value.
Given measured pIC50, output condition met if it is greater than or equal to 7 and condition not met if not.

C=CC(=O)N1Cc2cc(Nc3ccc(C(F)(F)F)cc3)c(-c3cn(C)cn3)cc2C1 [Example 1] :: condition met
C=CC(=O)N1CCc2c(ccc(Nc3ccc(Cl)cc3)c2-c2cn(C)cn2)C1 [Example 15] :: condition met
CNS(=O)(=O)N1Cc2ccc(Nc3ccc(C(F)(F)F)cc3)c(-c3cn(C)cn3)c2C1 [Example 6] :: condition not met
CNS(=O)(=O)N1CCc2c(ccc(Nc3ccc(C(F)(F)F)cc3)c2-c2cn(C)cn2)C1 [Example 4] :: condition not met
C=CC(=O)N1CCc2c(ccc(Nc3ccc(Br)cc3)c2-c2cn(C)cn2)C1 [Example 16] :: condition met

Origin of values: patent EP4786465A1
